For each record, write down the corresponding switch fluorescence ratio.
# Tested on: ATP;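 also: ATP exposure 15 min at 22 °C before imaging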
# measurement.notes: switch fluorescence ratio, 500 uM ATP over buffer (Cy3 cluster intensity, sum of 5 cycles each) (fold (ratio)); higher = stronger signal-on switching upon ATP binding; sequences stand for … in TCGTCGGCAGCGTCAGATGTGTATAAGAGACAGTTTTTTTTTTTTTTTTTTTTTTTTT…TC
# condition.description: aptamer strand: ATP DNA aptamer (quencher-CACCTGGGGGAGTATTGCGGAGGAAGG + anchor), 100 nM annealed; ATP concentration: 500 uM
Give bare numbers.

Completed entries (count: 3):
-- ask Tell me the measured switch fluorescence ratio of `AAGCGTCTCA` , please.
-- reply 0.997

-- ask Tell me the measured switch fluorescence ratio of `TAGGGGCCGT` , please.
-- reply 1.02

-- ask Tell me the measured switch fluorescence ratio of `AGGGTTGCAT` , please.
-- reply 0.986

I have 6 sequences here; please give me switch fluorescence ratio for each one.
1. TTATAACTCG
2. GGGGTATGGA
3. TCAGATTTGG
4. GATGTTGATT
5. TGATGACCAT
6. GTAAGAGCGG

-- reply
0.995
0.989
0.99
0.997
1.01
0.998

I have 5 sequences here; please give me switch fluorescence ratio for each one.
1. CCTGGTTAGG
2. ATAGAAGAGA
3. ACCATAATGG
4. AAAGGCGTAA
5. CGATTTTTTT

-- reply
[0.983, 0.985, 1.02, 0.997, 1.02]

I have 7 sequences here; please give me switch fluorescence ratio for each one.
1. TTAGGCGGGA
2. TTTTAATCGA
3. GTTTTTCGGG
4. GTTGGGGAGC
5. GAGAACGAGG
6. TTTTAGTATG
7. GTGGTCGAGA

-- reply
0.995
1.02
0.981
1
0.983
1
0.986

I have 3 sequences here; please give me switch fluorescence ratio for each one.
1. GTTTAAACGC
2. GGCGTAGTTA
3. CGGGGTTGAA

-- reply
[1.01, 0.985, 0.998]

I have 3 sequences here; please give me switch fluorescence ratio for each one.
1. GGGGCCAAGG
2. TGGTTAATCG
3. TTTTGAAAAG

-- reply
1. 0.981
2. 0.995
3. 1.01

====

# System: ATP;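 also: ATP exposure 15 min at 22 °C before imaging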
# measurement.notes: switch fluorescence ratio, 500 uM ATP over buffer (Cy3 cluster intensity, sum of 5 cycles each) (fold (ratio)); higher = stronger signal-on switching upon ATP binding; sequences stand for … in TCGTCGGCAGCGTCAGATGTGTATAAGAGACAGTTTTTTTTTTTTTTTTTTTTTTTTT…TC
# condition.description: aptamer strand: ATP DNA aptamer (quencher-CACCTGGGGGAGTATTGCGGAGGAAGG + anchor), 100 nM annealed; ATP concentration: 500 uM
For each record, write down the corresponding switch fluorescence ratio.
Give bare numbers.

-- ask Tell me the measured switch fluorescence ratio of `GGAAGGGGGA` , please.
-- reply 1.07

-- ask Tell me the measured switch fluorescence ratio of `AGTAAAGGGT` , please.
-- reply 0.999

Turning to the following sequence.
-- ask Tell me the measured switch fluorescence ratio of `CATTGGGTTT` , please.
-- reply 0.975

====

For each record, write down the corresponding switch fluorescence ratio.
# Tested on: ATP;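 also: ATP exposure 15 min at 22 °C before imaging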
# measurement.notes: switch fluorescence ratio, 500 uM ATP over buffer (Cy3 cluster intensity, sum of 5 cycles each) (fold (ratio)); higher = stronger signal-on switching upon ATP binding; sequences stand for … in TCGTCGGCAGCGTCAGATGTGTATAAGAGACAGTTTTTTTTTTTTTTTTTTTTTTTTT…TC
# condition.description: aptamer strand: ATP DNA aptamer (quencher-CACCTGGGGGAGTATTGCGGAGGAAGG + anchor), 100 nM annealed; ATP concentration: 500 uM
One number for each entry.

Completed entries (count: 5):
-- ask Tell me the measured switch fluorescence ratio of `TGGTCTAGTG` , please.
-- reply 0.968

-- ask Tell me the measured switch fluorescence ratio of `AGGCGGGTGA` , please.
-- reply 1.02

-- ask Tell me the measured switch fluorescence ratio of `ATGGGTTCAG` , please.
-- reply 0.969

-- ask Tell me the measured switch fluorescence ratio of `ACTTCTGGAG` , please.
-- reply 2.15

-- ask Tell me the measured switch fluorescence ratio of `GAGTGCGTCG` , please.
-- reply 1.01

I have 3 sequences here; please give me switch fluorescence ratio for each one.
1. GAGGGACGAG
2. ACAAAGCGCC
3. TCTAAGCCAT

-- reply
1. 1.05
2. 1.06
3. 1.05

====

# Test system: ATP;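 also: ATP exposure 15 min at 22 °C before imaging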
# measurement.notes: switch fluorescence ratio, 500 uM ATP over buffer (Cy3 cluster intensity, sum of 5 cycles each) (fold (ratio)); higher = stronger signal-on switching upon ATP binding; sequences stand for … in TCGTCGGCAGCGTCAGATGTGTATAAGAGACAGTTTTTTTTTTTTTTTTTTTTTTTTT…TC
# condition.description: aptamer strand: ATP DNA aptamer (quencher-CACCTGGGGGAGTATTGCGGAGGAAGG + anchor), 100 nM annealed; ATP concentration: 500 uM
observation.type: switch fluorescence ratio
Answers are plain numbers.

-- ask Tell me the measured switch fluorescence ratio of `GGCCCCCGGC` , please.
-- reply 0.969

-- ask Tell me the measured switch fluorescence ratio of `ATGTATCGGC` , please.
-- reply 1.01

-- ask Tell me the measured switch fluorescence ratio of `TTGCCTTCTT` , please.
-- reply 1.03

-- ask Tell me the measured switch fluorescence ratio of `TTAAAAGAGA` , please.
-- reply 1.04

-- ask Tell me the measured switch fluorescence ratio of `ATCGTTCTGT` , please.
-- reply 0.966

-- ask Tell me the measured switch fluorescence ratio of `GATATATCAG` , please.
-- reply 0.977

-- ask Tell me the measured switch fluorescence ratio of `ATAAGGTAG` , please.
-- reply 1

-- ask Tell me the measured switch fluorescence ratio of `AGCACGTTTT` , please.
-- reply 1.01

-- ask Tell me the measured switch fluorescence ratio of `TCGTATTTTC` , please.
-- reply 0.994

-- ask Tell me the measured switch fluorescence ratio of `TTGCCGGTTT` , please.
-- reply 1.05

I have 8 sequences here; please give me switch fluorescence ratio for each one.
1. GAGTCGAGAG
2. AACCAGGACT
3. AAAGGGAGGT
4. ACCGTTGTTC
5. ATGGGGAATA
6. GCTGGGAATT
7. TGGGGAATTG
8. TTCAAAATTT

-- reply
0.99
1.02
1.03
1.04
1.03
1
0.969
0.982

====

# Tested on: ATP;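 also: ATP exposure 15 min at 22 °C before imaging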
# measurement.notes: switch fluorescence ratio, 500 uM ATP over buffer (Cy3 cluster intensity, sum of 5 cycles each) (fold (ratio)); higher = stronger signal-on switching upon ATP binding; sequences stand for … in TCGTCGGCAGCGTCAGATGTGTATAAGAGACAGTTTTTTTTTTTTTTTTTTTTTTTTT…TC
# condition.description: aptamer strand: ATP DNA aptamer (quencher-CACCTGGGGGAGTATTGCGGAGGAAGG + anchor), 100 nM annealed; ATP concentration: 500 uM
For each record, write down the corresponding switch fluorescence ratio.
Numbers only.

-- ask Tell me the measured switch fluorescence ratio of `CGCCCCTGAA` , please.
-- reply 0.997

-- ask Tell me the measured switch fluorescence ratio of `CGAAGAGGGG` , please.
-- reply 0.995

-- ask Tell me the measured switch fluorescence ratio of `AGGGAAATGA` , please.
-- reply 0.987

-- ask Tell me the measured switch fluorescence ratio of `TACCAAGGGA` , please.
-- reply 0.991

-- ask Tell me the measured switch fluorescence ratio of `AACATATCGG` , please.
-- reply 1.02

I have 4 sequences here; please give me switch fluorescence ratio for each one.
1. ACGAGGATTG
2. TATTGCTTCT
3. GAATTGTGGG
4. CCGGATGTTG

-- reply
1. 1.04
2. 0.991
3. 0.989
4. 0.987

I have 3 sequences here; please give me switch fluorescence ratio for each one.
1. TTGGACTAGG
2. GGAGGAAGGC
3. CTTAGAAGTT

-- reply
[1.02, 1.75, 1.01]

====

# Tested on: ATP;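 also: ATP exposure 15 min at 22 °C before imaging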
# measurement.notes: switch fluorescence ratio, 500 uM ATP over buffer (Cy3 cluster intensity, sum of 5 cycles each) (fold (ratio)); higher = stronger signal-on switching upon ATP binding; sequences stand for … in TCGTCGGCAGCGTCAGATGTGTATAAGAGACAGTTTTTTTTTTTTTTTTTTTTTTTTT…TC
# condition.description: aptamer strand: ATP DNA aptamer (quencher-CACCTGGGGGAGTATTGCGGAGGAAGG + anchor), 100 nM annealed; ATP concentration: 500 uM
Label class 1 when switch fluorescence ratio >= 1; otherwise class 0.

The following sequences have reported results that may help.
-- ask Exam item: decide whether the reported switch fluorescence ratio for `GTTGGCAACA` is at least 1.
-- reply class 1

-- ask Exam item: decide whether the reported switch fluorescence ratio for `ACGGAGGGGG` is at least 1.
-- reply class 0

-- ask Exam item: decide whether the reported switch fluorescence ratio for `TGCGTTGGAG` is at least 1.
-- reply class 1

-- ask Exam item: decide whether the reported switch fluorescence ratio for `ACCAGATCAC` is at least 1.
-- reply class 1

New cases:
-- ask Exam item: decide whether the reported switch fluorescence ratio for `TTGCGACCTG` is at least 1.
-- reply class 1

-- ask Exam item: decide whether the reported switch fluorescence ratio for `TTAAAAAGAT` is at least 1.
-- reply class 1
